- assayContext: in acetone, 313.15 K
readoutLabel: solubility (mole fraction)
A bare number is all that is needed in reply.

Ask: Identify measured solubility (mole fraction) associated with `CN1CCN(C(=O)O[C@H]2c3nccnc3C(=O)N2c2ccc(Cl)cn2)CC1`
Result: 0.0032

###

- assayContext: in ethanol, 293.15 K
readoutLabel: solubility (mole fraction)
A bare number is all that is needed in reply.

Ask: Identify measured solubility (mole fraction) associated with `CN1CCN(C(=O)O[C@H]2c3nccnc3C(=O)N2c2ccc(Cl)cn2)CC1`
Result: 0.0003

###

- assayContext: in ethanol, 323.15 K
readoutLabel: solubility (mole fraction)
A bare number is all that is needed in reply.

Ask: Identify measured solubility (mole fraction) associated with `CN1CCN(C(=O)O[C@H]2c3nccnc3C(=O)N2c2ccc(Cl)cn2)CC1`
Result: 0.001

###

- assayContext: in ethanol, 298.15 K
readoutLabel: solubility (mole fraction)
A bare number is all that is needed in reply.

Ask: Identify measured solubility (mole fraction) associated with `CN1CCN(C(=O)O[C@H]2c3nccnc3C(=O)N2c2ccc(Cl)cn2)CC1`
Result: 0.0004

###

- assayContext: in acetone, 293.15 K
readoutLabel: solubility (mole fraction)

Ask: Identify measured solubility (mole fraction) associated with `CN1CCN(C(=O)O[C@H]2c3nccnc3C(=O)N2c2ccc(Cl)cn2)CC1`
Result: 0.0015

###

- assayContext: in ethanol, 308.15 K
readoutLabel: solubility (mole fraction)

Ask: Identify measured solubility (mole fraction) associated with `CN1CCN(C(=O)O[C@H]2c3nccnc3C(=O)N2c2ccc(Cl)cn2)CC1`
Result: 0.0005

###

- assayContext: in ethanol, 303.15 K
readoutLabel: solubility (mole fraction)
A bare number is all that is needed in reply.

Ask: Identify measured solubility (mole fraction) associated with `CN1CCN(C(=O)O[C@H]2c3nccnc3C(=O)N2c2ccc(Cl)cn2)CC1`
Result: 0.0004

###

- assayContext: in acetone, 288.15 K
readoutLabel: solubility (mole fraction)
A bare number is all that is needed in reply.

Ask: Identify measured solubility (mole fraction) associated with `CN1CCN(C(=O)O[C@H]2c3nccnc3C(=O)N2c2ccc(Cl)cn2)CC1`
Result: 0.0013

###

- assayContext: in ethanol, 318.15 K
readoutLabel: solubility (mole fraction)
A bare number is all that is needed in reply.

Ask: Identify measured solubility (mole fraction) associated with `CN1CCN(C(=O)O[C@H]2c3nccnc3C(=O)N2c2ccc(Cl)cn2)CC1`
Result: 0.0009

###

- assayContext: in acetone, 318.15 K
readoutLabel: solubility (mole fraction)
A bare number is all that is needed in reply.

Ask: Identify measured solubility (mole fraction) associated with `CN1CCN(C(=O)O[C@H]2c3nccnc3C(=O)N2c2ccc(Cl)cn2)CC1`
Result: 0.0037

###

- assayContext: in acetone, 308.15 K
readoutLabel: solubility (mole fraction)
A bare number is all that is needed in reply.

Ask: Identify measured solubility (mole fraction) associated with `CN1CCN(C(=O)O[C@H]2c3nccnc3C(=O)N2c2ccc(Cl)cn2)CC1`
Result: 0.0027

###

- assayContext: in ethanol, 288.15 K
readoutLabel: solubility (mole fraction)
A bare number is all that is needed in reply.

Ask: Identify measured solubility (mole fraction) associated with `CN1CCN(C(=O)O[C@H]2c3nccnc3C(=O)N2c2ccc(Cl)cn2)CC1`
Result: 0.0002

Where do these numbers come from? They come from BigSolDB 2.1.
